- target_or_test_system: 5-Lipoxygenase (Rattus norvegicus)
- Construct: host or cells: RBL-1 rat basophilic leukemia cells
- Sequence (P12527 whole entry): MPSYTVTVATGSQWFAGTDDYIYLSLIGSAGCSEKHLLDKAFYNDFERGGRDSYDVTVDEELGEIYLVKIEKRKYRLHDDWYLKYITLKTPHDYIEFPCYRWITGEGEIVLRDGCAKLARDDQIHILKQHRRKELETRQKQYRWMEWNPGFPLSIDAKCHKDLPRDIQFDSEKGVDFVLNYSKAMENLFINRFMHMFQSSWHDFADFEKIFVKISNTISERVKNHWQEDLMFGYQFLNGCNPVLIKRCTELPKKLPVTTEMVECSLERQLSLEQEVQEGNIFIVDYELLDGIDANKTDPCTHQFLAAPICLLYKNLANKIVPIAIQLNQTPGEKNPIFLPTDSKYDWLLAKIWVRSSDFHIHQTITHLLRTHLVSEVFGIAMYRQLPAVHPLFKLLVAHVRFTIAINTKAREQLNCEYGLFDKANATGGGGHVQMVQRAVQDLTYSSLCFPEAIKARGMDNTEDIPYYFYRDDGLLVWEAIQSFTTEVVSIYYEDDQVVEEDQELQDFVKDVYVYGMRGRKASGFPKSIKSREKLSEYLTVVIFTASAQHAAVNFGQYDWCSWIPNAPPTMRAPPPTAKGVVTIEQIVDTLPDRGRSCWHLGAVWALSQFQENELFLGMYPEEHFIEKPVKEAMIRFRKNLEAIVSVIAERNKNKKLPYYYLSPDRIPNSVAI
- protocol_summary: ARBL whole cell 5-lipoxygenase assay (LTB4 formation in RBL-1 cells, A23187 stimulated)
- Assay type: cell-based
- setup_conditions: at 16 μM; RBL-1 cells; read-out: ARBL % inhibition of LTB4
- Experimental: ARBL/ARBC Whole Cell 5-Lipoxygenase and Cyclooxygenase Assays The rat basophilic leukemia cell line (RBL-1) was obtained from the American Type Culture Collection (Rockville, MD). […] RBL-1 cells are grown in suspension culture in Eagle's minimum essential medium supplemented with 12% fetal bovine serum at 37° C. in an incubator supplied with air-5% carbon dioxide. […] Aliquots (100 μl) are analyzed for LTB4 and PGF2α using radioimmunoassay kits as provided by the supplier. […]
value_kind: inhibition at 16 µM
In your response, the unit should come after the numeric value.

INSERT INTO measurements (molecule, observed) VALUES
  ('CCOC(=O)NC(=O)N(O)Cc1c(C)n(C(=O)c2ccc(Cl)cc2)c2ccc(OC)cc12 [Example 72]', '98%'),
  ('C=CCNC(=O)N(O)Cc1c(C)n(C(=O)c2ccc(Cl)cc2)c2ccc(OC)cc12 [Example 71]', '100%'),
  ('CCOC(=O)C(=O)N(O)Cc1ccc2c(c1)Cc1ccccc1-2 [Example 2]', '96%'),
  ('CCOC(=O)C(=O)N(O)Cc1ccc2c(c1)OCc1ccccc1C2=O [Example 19]', '84%'),
  ('CNC(=S)N(O)C(C)c1ccc2c(c1)Cc1ccccc1-2 (stereo not drawn) [Example 10]', '100%'),
  ('COc1ccc2c(c1)c(CN(O)C(N)=O)c(C)n2C(=O)c1ccc(Cl)cc1 [Example 68]', '98%'),
  ('CC(NO)c1ccc2c(c1)Cc1ccccc1-2 (stereo not drawn) [Example 7]', '100%'),
  ('CC(=O)N(O)Cc1ccc2c(c1)Cc1ccccc1-2 [Example 4]', '100%');

Could you now look at the following molecule, please?
// inhibition at 16 µM value for CC(C)C(=O)N(O)C(C)c1ccc2c(c1)Cc1ccccc1-2 (stereo not drawn) [Example 13] : 90%
